- test.system: HLA-DR DRB1*1302 (human)
- run.description: radioligand binding
parameter: pIC50
Note on units: pIC50 is unitless, being -log10 of a concentration expressed in mol/L.

Looking up NPILLWQPIPVHTVPLSEDQ [PAP_(133-152)] , I found its pIC50 recorded as 6.47
